// data source = paper PMC2756588

Target: T1, Cdc25, P04821
T1 sequence (P04821 50-136, looked up): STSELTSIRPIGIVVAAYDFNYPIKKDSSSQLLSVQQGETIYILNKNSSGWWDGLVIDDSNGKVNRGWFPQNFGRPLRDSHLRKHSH
Test: SPOT array
Settings: median of control spots 969
observable: SPOT intensity

[
  {
    "binder": "GATNNAPTLPKRKNP",
    "quantitative_readout": 1
  },
  {
    "binder": "KRRTSLFPWLHKPGI",
    "quantitative_readout": 18
  },
  {
    "binder": "RAPPPVPKKPSSRIA",
    "quantitative_readout": 2
  },
  {
    "binder": "YRRKSIPFAPHQITA",
    "quantitative_readout": 2
  },
  {
    "binder": "EVTPKVPERPSRRKT",
    "quantitative_readout": 10
  },
  {
    "binder": "RRRRRPHRIERPLSN",
    "quantitative_readout": 28
  },
  {
    "binder": "GERSRPLVISILSSA",
    "quantitative_readout": 16
  },
  {
    "binder": "DFTLPPPPPPPGLDE",
    "quantitative_readout": 0
  },
  {
    "binder": "AGKRRLPLVRFKASD",
    "quantitative_readout": 55
  },
  {
    "binder": "GKFIPSRPAPKPPSS",
    "quantitative_readout": 4
  },
  {
    "binder": "KLSRGRYGLPLSSRP",
    "quantitative_readout": 12
  },
  {
    "binder": "EQEEIAPSLPSRNSI",
    "quantitative_readout": 1
  },
  {
    "binder": "GKKVRPLLVLLLSRA",
    "quantitative_readout": 132
  },
  {
    "binder": "STPQTMRQAPKRPDA",
    "quantitative_readout": 0
  },
  {
    "binder": "KRRAPPPVPKKPSSR",
    "quantitative_readout": 9
  }
]
